Method: viability loss of HPDE-C7K cells – cell-based, fluorescence, HTS, primary screen (AID 431);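 note: 0% = DMSO solvent wells and 100% = doxorubicin-treated wells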
Measurement Setup: HPDE-C7K KRASV12 cells, Alamar Blue viability, 48 h; at 10 µM; hits give high values
Screen size: about 63,000 compounds; about 1,100 (1.7%) were called active. The entries come from a sample that favours actives as a whole. Entries with a potency or affinity are not part of this list.
Overview of reported cytotoxicity across a group of compounds:
Readout Type: cytotoxicity (%)

• COc1cccc(S(=O)(=O)Nc2ccc(C(=O)NCc3ccco3)cc2)c1 = -28.4
• CCCc1cc(-c2[nH]ncc2-c2ccc(C(=O)OCC)o2)c(O)cc1O = 30.9
• CCCCn1cnc2sc3c(c2c1=N)CCCC3 = -7.6
• COc1ccccc1N1CCN(c2nc(N)c(C#N)c(CC#N)c2C#N)CC1 = -4.3
• CCOc1ccccc1N1CCN(c2nc(N)c(C#N)c(CC#N)c2C#N)CC1 = -11.4
• CCCCOc1cccc(C(=O)N(Cc2ccco2)C2CCS(=O)(=O)C2)c1 (stereo not drawn) = -19.4
• O=C(NCCCN1CCN(c2ccccc2F)CC1)C1CCC(=O)N1C1CCCC1 (stereo not drawn) = -6.6
• Cc1ccc(S(=O)(=O)Nc2ccc3nc(N)sc3c2)cc1 = 4.4
• COc1cc2c(C#N)c(N3CCOCC3)nc(N)c2c(N)n1 = 46.6
• O=C(CN1C(=O)COc2ccccc21)c1ccc(Cl)cc1 = -0.2
• Cc1ccc2c(c1)[nH]c1c(=O)n(CCCN3CCOCC3)cnc12 = -20.9
• O=C(Nc1nccs1)c1ccc(COc2ccc(F)cc2)o1 = 5
• Cc1nc(-c2ccc3c(c2)OCO3)cs1 = -26.4
• COc1cc2c(C#N)c(N3CCCCC3)nc(N)c2c(N)n1 = 56.9
• O=C(Nc1cccnc1)c1ccc(COc2ccccc2Br)o1 = 30.3
• CCCCn1nc(NC(=O)c2cccs2)c2cc3cc(OC)ccc3nc21 = 23.2
• CCOC(=O)c1sc2nc(N3CCCC3)c3c(c2c1N)CC(C)(C)OC3 = -3
• c1ccc(-c2nnc(-c3ccccn3)nn2)nc1 = 8.9

====

Method: viability loss of HPDE-C7K cells – cell-based, fluorescence, HTS, primary screen (AID 431);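 note: 0% = DMSO solvent wells and 100% = doxorubicin-treated wells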
Measurement Setup: HPDE-C7K KRASV12 cells, Alamar Blue viability, 48 h; at 10 µM; hits give high values
The campaign covered roughly 63,000 compounds. About 1,100 (1.7%) were called active. Only a selection was taken, and actives are over-represented in it overall. Results with a measured potency or affinity are listed apart.
Overview of reported cytotoxicity across a group of compounds:
Readout Type: cytotoxicity (%)

- CN(C)S(=O)(=O)c1ccc(-c2ccccc2)cc1: -6.1
- Cc1nn(-c2cccc(C(F)(F)F)c2)c(Cl)c1/C=N/n1cnnc1: 3.5
- O=C(CN1CCN(c2ccc(Cl)cc2)CC1)Nc1ccc(F)c(F)c1: -4.6
- CCCCn1c(SCC(=O)OCC)nc2c1c(=O)[nH]c(=O)n2C: 2.4
- Cn1cc(/C=N/n2cnc3scc(-c4ccccc4)c3c2=O)c2ccccc21: 48.5

====

Method: viability loss of HPDE-C7K cells – cell-based, fluorescence, HTS, primary screen (AID 431);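 note: 0% = DMSO solvent wells and 100% = doxorubicin-treated wells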
Measurement Setup: HPDE-C7K KRASV12 cells, Alamar Blue viability, 48 h; at 10 µM
About 1,100 (1.7%) of roughly 63,000 compounds were called active.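 The calls were made as follows: active = compounds whose percent cytotoxicity in the single-dose primary screen, scaled between solvent and toxic-drug controls, exceeds 50; inactive = the rest.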 What follows is part of a selection rich in actives, with near analogues and random picks from the rest. Results with a measured potency or affinity are listed apart.
Possible outcomes: t = active, f = inactive

* CN(C)c1cccc(C(=O)Nc2cccc(F)c2)c1 | f
* COc1ccc(C(C(O)C(=O)c2c[nH]c3ccccc23)N2CCN(c3ccc(OC)cc3)CC2)cc1 (stereo not given) | t
* Cc1ccccc1S(=O)(=O)Cc1ccc(C(=O)NCCN2CCN(Cc3ccccc3)CC2)o1 | f
* O=C(Cn1cc2c(n1)CCCC2)Nc1ccccc1Cl | f
* CCOC(=O)C1C(C)N=C2SCC(=O)N2C1c1cccc(Br)c1 (stereo not given) | f
* C=CCN(CC=C)S(=O)(=O)c1ccc2nc(NC(=O)C(C)C)sc2c1 | t
* Cc1ccc(C(=O)NCCCC(=O)O)o1 | f
* CCNS(=O)(=O)c1ccc(OCCNS(C)(=O)=O)cc1 | f
* CC1CC(=O)N(CC(=O)N2CCCC2)c2ccccc2S1 (stereo not given) | f
* COc1ccc(C2C(C(C)=O)=C(O)C(=O)N2C)c(OC)c1 (stereo not given) | f
* Cc1ccc(NC(=O)CC(O)(C(F)(F)F)C(F)(F)F)c(Br)c1 | f
* CCOc1cccc(C(=O)Nc2ccc(N3CCN(S(C)(=O)=O)CC3)cc2)c1 | f
* CC(=O)Nc1ccc(NC(=O)c2ccccc2F)cc1 | f
* Clc1ccc(NC2=NCCC2)cc1Cl | f
* CSc1ccc(-c2nnn(Cc3ccccn3)n2)cc1 | f
* CCOC(=O)/C=C1\SCC(=O)N1Cc1nnc(-c2ccccc2Br)o1 | f
* COc1ccc(C2CC(c3c(O)cc(C)oc3=O)=NCCS2)c(OC)c1 (stereo not given) | t
* COc1ccc(C(CC(=O)O)NS(=O)(=O)c2ccc(C)cc2)cc1OC (stereo not given) | f
* COc1ccc(CCNC(=O)C2=COCCO2)cc1 | f
* COc1ccc(C2NC(=O)c3n[nH]c(C)c32)c(OC)c1 (stereo not given) | f
* O=S(=O)(c1ccc(Nc2ccc3c(c2)OCO3)nc1)N1CCOCC1 | f
* CCOc1ccccc1Oc1ccc(C(F)(F)F)cn1 | f
* CC[C@H]1OC(=O)C[C@@H](O)[C@H](C)[C@@H](O[C@@H]2O[C@H](C)C[C@H](N(C)C)[C@H]2O)[C@@H](CC=O)C[C@@H](C)C(=O)C=C[C@]2(C)O[C@H]2[C@@H]1C | t
* O=C(CC(SCc1ccco1)c1ccc(O)cc1)c1cccs1 (stereo not given) | t
* COc1ccccc1Oc1nc2c(c(=O)n(Cc3ccccc3F)c(=O)n2C)n1C | f

====

Overview of reported cytotoxicity across a group of compounds:
Method: viability loss of HPDE-C7K cells – cell-based, fluorescence, HTS, primary screen (AID 431);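 note: 0% = DMSO solvent wells and 100% = doxorubicin-treated wells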
Measurement Setup: HPDE-C7K KRASV12 cells, Alamar Blue viability, 48 h; at 10 µM; hits give high values
The whole screen tested about 63,000 compounds, of which about 1,100 (1.7%) were called active. The list comes from a sample in which actives are over-represented; it also holds close analogues and randomly drawn compounds. Potency and affinity values are given separately.
Readout Type: cytotoxicity

* CCc1ccc(CCC(=O)Nc2sc3c(c2C#N)CCCC3)o1 | 73.8% (active)
* COCCNC(=O)c1ccccc1-c1ccccc1C(=O)O | 7.4% (inactive)
* Cc1cccc(CN2CCN(c3ccccn3)CC2)c1 | -9.1% (inactive)
* CCCC(=O)Nc1sc2c(c1C#N)CCCC2 | 1.4% (inactive)
* C[C@]12CC[C@@H]3c4ccc(OC(=O)c5ccccc5)cc4CC[C@H]3[C@@H]1CC[C@@H]2O | 54.4% (active)
* Cc1cc(NC(=O)c2c(F)c(F)c(F)c(F)c2F)no1 | -11.5% (inactive)
* COC(=O)CCC(=O)Nc1sc2c(c1C#N)CCCC2 | -6.7% (inactive)
* CN1CCCN(C(c2ccccc2)c2ccc(Cl)cc2)CC1 (stereo unspecified) | 51% (active)
* Cc1cccc(CN2CCN(C(=O)c3ccccc3F)CC2)c1 | -6.8% (inactive)
* OCc1nnn(-c2cccc(C(F)(F)F)c2)c1CO | -2.5% (inactive)
* Cc1ccc(-c2noc(CN(C(=O)CCN3C(=O)c4ccccc4C3=O)C(C)C)n2)cc1 | -8.2% (inactive)
* COC(=O)c1ccc(N=c2sc(C(=O)OC)cc(=O)n2C)cc1 | -16.7% (inactive)
* Cc1nc2ccc(NC(=O)N3CCOCC3)cc2s1 | -19.1% (inactive)
* O=C(NCc1ccco1)c1cccc2ccccc12 | -9% (inactive)
* CCC(c1nc2ccccc2c(=O)n1CCCn1ccnc1)N1C(=O)c2ccccc2C1=O (stereo unspecified) | -3.6% (inactive)
* Cc1cc(N2CCN(C(=O)c3ccco3)CC2)n2nc(-c3cccc(Cl)c3)cc2n1 | 2% (inactive)

====

Method: viability loss of HPDE-C7K cells – cell-based, fluorescence, HTS, primary screen (AID 431);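 note: 0% = DMSO solvent wells and 100% = doxorubicin-treated wells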
Measurement Setup: HPDE-C7K KRASV12 cells, Alamar Blue viability, 48 h; at 10 µM
About 1,100 (1.7%) of roughly 63,000 compounds were called active.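 How the source made its calls: active means compounds whose percent cytotoxicity in the single-dose primary screen, scaled between solvent and toxic-drug controls, exceeds 50; inactive means the rest.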 This is one part of a sample in which actives are shown more often than they occur. Entries with a potency or affinity are not part of this list.
Possible outcomes: active, inactive

• COCCNC(=O)C(c1ccc(C)o1)N(C(=O)c1snc(C(N)=O)c1N)c1cccc(C)c1 (stereo not drawn) = inactive
• COc1cc(NCCCC(C)N)c2ncccc2c1 (stereo not drawn) = inactive
• CC(C)(C#N)Nn1cnnc1 = inactive
• COc1ccc(C2=[N+]([O-])C(C)(C)N(O)C2(C)C)cc1 = inactive
• COc1cccc(C(=O)CSc2nnc(CNc3nc(-c4ccccc4)cs3)n2C)c1 = inactive
• O=S(=O)(Nc1cccc2cccnc12)c1ccc(S(=O)(=O)N2CCCC2)cc1 = active
• O=C(Cn1c(=O)oc2cc(S(=O)(=O)NCc3ccccc3)ccc21)NCc1ccco1 = inactive
• CS(=O)(=O)Nc1cccc2cccnc12 = inactive
